As an illustration, consider measured IC50 for compounds on PFKFB4 (Homo sapiens (Human), UniProt Q16877).
Sequence (Q16877 whole entry): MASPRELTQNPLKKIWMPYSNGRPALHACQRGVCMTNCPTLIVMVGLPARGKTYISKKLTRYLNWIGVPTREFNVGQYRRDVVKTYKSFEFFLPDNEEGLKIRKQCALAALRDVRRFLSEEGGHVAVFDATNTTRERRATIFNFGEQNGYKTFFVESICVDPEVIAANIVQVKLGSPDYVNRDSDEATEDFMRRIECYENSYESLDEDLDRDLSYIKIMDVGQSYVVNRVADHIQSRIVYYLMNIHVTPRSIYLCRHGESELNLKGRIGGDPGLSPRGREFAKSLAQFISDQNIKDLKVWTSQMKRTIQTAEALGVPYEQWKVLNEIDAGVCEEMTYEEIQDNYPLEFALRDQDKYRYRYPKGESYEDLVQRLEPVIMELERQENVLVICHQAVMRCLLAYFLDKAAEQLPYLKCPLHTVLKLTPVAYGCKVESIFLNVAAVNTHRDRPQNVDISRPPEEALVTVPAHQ
Report as a plain number; the unit nM is understood.

| STRUCTURE | VALUE_UNITS | IC50 |
| --- | --- | --- |
| COc1ccccc1-c1ccc(S(=O)(=O)Nc2cccc(-c3nnn[nH]3)c2)s1 | nM | 660 |
| Cc1c(S(=O)(=O)Nc2cccc(-c3nnn[nH]3)c2)sc2ccc(F)cc12 | nM | 170 |
| Cc1c(S(=O)(=O)Nc2ncc(C(=O)O)s2)sc2ccc(C(C)C)cc12 | nM | 100 |
| Cc1c(S(=O)(=O)Nc2cccc(C(=O)O)c2O)sc2ccc(Cl)cc12 | nM | 180 |

Form field: reported IC50 of `O=S(=O)(Nc1cccc(-c2nnn[nH]2)c1)c1ccc(-c2ccc(F)c(Cl)c2)s1`
660

###

Overview of reported pIC50 across a group of compounds:
biological target: PFKFB3 (Homo sapiens (Human), UniProt Q16875); experiment: PFKFB3 kinase activity, Method A (F-2,6-P2 production, coupled PPi-PFK/NADH assay); assay type: biochemical
Sequence (Q16875 whole entry): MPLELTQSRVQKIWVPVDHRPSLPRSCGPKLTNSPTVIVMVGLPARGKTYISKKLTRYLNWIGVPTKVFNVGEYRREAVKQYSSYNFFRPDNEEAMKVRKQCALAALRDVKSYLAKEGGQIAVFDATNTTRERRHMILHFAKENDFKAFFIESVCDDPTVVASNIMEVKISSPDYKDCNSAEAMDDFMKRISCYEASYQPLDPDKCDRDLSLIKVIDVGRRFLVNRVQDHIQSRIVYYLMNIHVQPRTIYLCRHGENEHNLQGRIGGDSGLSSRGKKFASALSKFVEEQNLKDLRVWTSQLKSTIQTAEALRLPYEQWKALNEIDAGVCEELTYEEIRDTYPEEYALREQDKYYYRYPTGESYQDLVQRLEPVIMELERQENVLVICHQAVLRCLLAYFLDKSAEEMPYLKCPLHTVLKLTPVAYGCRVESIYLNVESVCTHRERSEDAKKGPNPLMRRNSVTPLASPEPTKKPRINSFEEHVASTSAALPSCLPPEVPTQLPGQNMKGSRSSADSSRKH
Please report pIC50 as the negative decimal logarithm of the molar concentration, giving only the number.

| STRUCTURE | pIC50 |
| --- | --- |
| Cc1c(S(=O)(=O)Nc2cccc(CC(=O)O)c2)sc2ccc(C(C)C)cc12 | 6.64 |
| CC(=O)Nc1ccc2sc(S(=O)(=O)Nc3cccc(C(=O)O)c3)c(C)c2c1 | 5.29 |
| O=S(=O)(Nc1cccc(-c2nnn[nH]2)c1)c1ccc(F)cc1Cl | 5.01 |
| Cc1c(S(=O)(=O)Nc2cccc(-c3nnn(CC(=O)O)n3)c2)sc2ccc(C(C)C)cc12 | 5.99 |

Checklist item: pIC50 tested on PFKFB3 (Homo sapiens (Human), UniProt Q16875), entry `O=S(=O)(Nc1cccc(-c2nnn[nH]2)c1)c1ccc(-c2nsc(Cl)n2)s1` , value?
6.25

What do you have for `Cc1c(S(=O)(=O)Nc2cccc(-c3nnn[nH]3)c2)oc2ccc(C(C)C)cc12` ?
7.10

What do you have for `Cc1c(S(=O)(=O)Nc2cccc(-c3nnn[nH]3)c2)sc2ccc(N)cc12` ?
6.44

What do you have for `Cc1c(S(=O)(=O)Nc2cc(C(=O)O)cc([N+](=O)[O-])c2)sc2ccc(C(C)C)cc12` ?
6.07
